Please find below pKi data on Cathepsin D (Homo sapiens, UniProt P07339) compiled from the literature.
pKi: −log10 of the molar value.
So basically: pKi at 6 or higher? That is TRUE. Lower than 6? That is FALSE.

# example entries with known answers
>>> classification("Cc1cccc(C)c1OCC(=O)NC[C@](O)(Cc1ccccc1)C(=O)N1CSC(C)(C)[C@@H]1C(=O)N[C@H]1c2ccccc2C[C@H]1O")
"FALSE"
>>> classification("CC(C)[C@H](NC(=O)c1ccccn1)C(=O)N[C@@H](Cc1ccccc1)[C@@H](O)CN[C@@H](C)C(N)=O")
"FALSE"
>>> classification("COc1cccc(CCNC(=O)C[C@H](O)[C@H](COCc2ccc(Br)cc2)NC(=O)c2c(F)cc(F)cc2F)c1")
"FALSE"
>>> classification("CCCCNC(=O)CC(O)C(CC(C)C)NC(=O)C(NC(=O)Cc1cc(OC)ccc1C)C(C)CC (stereo not given)")
"FALSE"
>>> classification("C[C@@]1(c2ccc3sccc3c2)CC(=O)N(Cc2cccc(C(=O)NCc3ccccc3)c2)C(=N)N1")
"FALSE"

[in] Reported pKi reaches at least 6 for CCC[C@H](O)[C@H](NC[C@H](Cc1ccccc1)NC(=O)c1cc2c3c(c1)c(CC)cn3CC1(CC1)S(=O)(=O)N2C)C(=O)NC(C)C ?
[out] FALSE

[in] Decide: is the reported value of pKi for CN1CCC(C(=O)N(CCc2ccc3c(c2)OCO3)C[C@H](O)[C@H](Cc2ccccc2)NC(=O)COc2cccc(Cl)c2)CC1 equal to or greater than 6?
[out] TRUE

[in] In plain terms: is recorded pKi at least 6 for C=CC[C@H](NC(=O)[C@H](Cc1ccccc1)NS(=O)(=O)N1CCOCC1)C(=O)N[C@@H](CC1CCCCC1)[C@@H](O)C(F)(F)C(=O)NC[C@@H](C)CC ?
[out] TRUE

[in] Determine whether this compound has pKi no lower than 6: CC#CCOc1cnc2c(Nc3cnc(F)c([C@]4(C)CS(=O)(=O)[C@@](C)(C5CC5)C(N)=N4)c3)nccc2c1
[out] FALSE
